# Test system: various anti-gD2 antibodies
# assayProtocol: Reactivity of gD variants with anti-gD2 antibodies (competitive ELISA)
# Assay type: binding, human
# measurementParameters: immobilized gD variant
testReadout: Reactivity with anti-gD2 antibody 72

gD1-275 (protein) KYALADPSLKMADPNRFRGKNLPVLDQLTDPPGVKRVYHIQPSLEDPFQPPSIPITVYYAVLERACRSVLLHAPSEAPQIVRGASDEARKHTYNLTIAWYRMGDNCAIPITVMEYTECPYNKSLGVCPIRTQPRWSYYDSFSAVSEDNLGFLMHAPAFETAGTYLRLVKINDWTEITQFILEHRARASCKYALPLRIPPAACLTSKAYQQGVTVDSIGMLPRFIPENQRTVALYSLKIAGWHGPKPPYTSTLLPPELSDTTNATQPELVPEDPED : + ((+): 70% or more)
gD1-275v5: gD1-275 with glycochains at R186 (SC-A) and P50 (SC-F) (protein) KYALADPSLKMADPNRFRGKNLPVLDQLTDPPGVKRVYHIQPSLEDPFQNASIPITVYYAVLERACRSVLLHAPSEAPQIVRGASDEARKHTYNLTIAWYRMGDNCAIPITVMEYTECPYNKSLGVCPIRTQPRWSYYDSFSAVSEDNLGFLMHAPAFETAGTYLRLVKINDWTEITQFILEHRANASCKYALPLRIPPAACLTSKAYQQGVTVDSIGMLPRFIPENQRTVALYSLKIAGWHGPKPPYTSTLLPPELSDTTNATQPELVPEDPEDHHHHHH : + ((+): 70% or more)
